Species: Rattus norvegicus
Experiment: Compound was tested for its ability to inhibit [3H]dopamine uptake in rat synaptosomes
Type: functional
Conditions: Brain
reported-property: pIC50
When answering, recall that pIC50 equals minus log10 of the concentration in mol/L, and write that number alone.

These recorded examples may help you get a feel for the data.
Query: Need pIC50, item Cc1cc(CC(C)N)cc2c1OCO2 (stereo unspecified)
Response: 4.94

Query: Need pIC50, item Cc1c(CC(C)N)ccc2c1OCO2 (stereo unspecified)
Response: 4.92

Query: Need pIC50, item CSc1ccc(CC(C)N)cc1 (stereo unspecified)
Response: 5.51

Query: Need pIC50, item CC(N)Cc1ccc(I)cc1 (stereo unspecified)
Response: 6.23

Query: Need pIC50, item Cc1cc2c(cc1CC(C)N)OCO2 (stereo unspecified)
Response: 4.55

Next molecule, please.
Query: Need pIC50, item CC(N)Cc1ccc2c(c1)OCO2 (stereo unspecified)
Response: 6.05

---

Biological target: Norepinephrine transporter (Rattus norvegicus)
Sequence (Q9WTR4 whole entry): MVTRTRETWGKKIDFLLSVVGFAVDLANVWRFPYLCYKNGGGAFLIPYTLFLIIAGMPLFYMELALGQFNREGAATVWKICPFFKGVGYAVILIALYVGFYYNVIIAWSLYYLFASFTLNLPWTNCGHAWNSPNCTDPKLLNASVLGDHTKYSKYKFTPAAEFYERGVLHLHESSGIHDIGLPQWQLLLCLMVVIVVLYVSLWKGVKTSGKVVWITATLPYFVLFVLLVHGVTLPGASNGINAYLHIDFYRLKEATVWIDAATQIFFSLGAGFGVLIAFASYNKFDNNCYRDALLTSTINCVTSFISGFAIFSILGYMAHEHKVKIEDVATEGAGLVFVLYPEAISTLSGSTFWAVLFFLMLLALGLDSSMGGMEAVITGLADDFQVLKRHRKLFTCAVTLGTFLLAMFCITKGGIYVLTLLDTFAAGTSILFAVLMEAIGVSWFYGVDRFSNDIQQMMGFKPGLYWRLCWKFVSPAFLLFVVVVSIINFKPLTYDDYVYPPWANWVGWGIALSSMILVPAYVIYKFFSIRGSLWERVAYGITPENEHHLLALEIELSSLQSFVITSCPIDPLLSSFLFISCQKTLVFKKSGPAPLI
Assay: Compound was tested for the ability to inhibit [3H]norepinephrine binding to Norepinephrine transporter in rat synaptosomes
Format: subcellular, Brain
Each entry below carries its recorded IC50.
API: value field is a number in nM; no unit string.

These recorded examples may help you get a feel for the data.
Query: Need IC50, item CC(N)Cc1ccc2c(c1)OCO2 (stereo unspecified)
Response: 266

Query: Need IC50, item Cc1cc2c(cc1CC(C)N)OCO2 (stereo unspecified)
Response: 4600

Query: Need IC50, item CSc1ccc(CC(C)N)cc1 (stereo unspecified)
Response: 2380

Query: Need IC50, item CC(N)Cc1ccc(I)cc1 (stereo unspecified)
Response: 993

Query: Need IC50, item Cc1cc(CC(C)N)cc2c1OCO2 (stereo unspecified)
Response: 1490

Next:
Query: Need IC50, item CC(N)Cc1ccc2c(c1)CCC2 (stereo unspecified)
Response: 849

---

Molecular target: Sodium-dependent serotonin transporter (Rattus norvegicus, UniProt P31652)
Sequence (P31652 whole entry): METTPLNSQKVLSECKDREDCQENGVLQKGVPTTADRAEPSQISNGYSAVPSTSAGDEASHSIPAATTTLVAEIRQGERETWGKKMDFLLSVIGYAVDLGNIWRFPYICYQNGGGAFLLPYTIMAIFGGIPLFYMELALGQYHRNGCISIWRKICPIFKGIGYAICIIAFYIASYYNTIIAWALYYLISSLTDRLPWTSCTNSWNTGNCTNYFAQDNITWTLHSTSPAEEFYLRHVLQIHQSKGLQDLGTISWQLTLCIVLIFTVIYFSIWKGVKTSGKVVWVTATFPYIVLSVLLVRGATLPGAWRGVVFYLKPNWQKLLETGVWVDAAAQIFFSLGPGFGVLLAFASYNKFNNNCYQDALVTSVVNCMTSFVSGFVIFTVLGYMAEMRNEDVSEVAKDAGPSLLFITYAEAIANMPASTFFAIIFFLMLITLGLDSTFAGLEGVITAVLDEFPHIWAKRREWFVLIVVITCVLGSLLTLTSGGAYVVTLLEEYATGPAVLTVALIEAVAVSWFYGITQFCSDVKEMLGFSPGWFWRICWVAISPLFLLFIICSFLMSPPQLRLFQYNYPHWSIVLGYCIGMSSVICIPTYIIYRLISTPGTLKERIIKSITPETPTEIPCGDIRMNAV
Assay: Activity towards Serotonin transporter was determined by the ability to inhibit [3H]5-HT uptake in rat synaptosomes
reported-property: IC50 (nM)
API: value field is a number in nM; no unit string.

Query: Need IC50, item CC(N)Cc1ccc2c(c1)CCC2 (configuration not stated)
Response: 82

Query: Need IC50, item Cc1cc2c(cc1CC(C)N)OCO2 (configuration not stated)
Response: 783

Query: Need IC50, item Cc1c(CC(C)N)ccc2c1OCO2 (configuration not stated)
Response: 93

Query: Need IC50, item CSc1ccc(CC(C)N)cc1 (configuration not stated)
Response: 74

Query: Need IC50, item Cc1cc(CC(C)N)cc2c1OCO2 (configuration not stated)
Response: 107

Next:
Query: Need IC50, item CC(N)Cc1ccc2c(c1)OCO2 (configuration not stated)
Response: 478

Query: Need IC50, item CC(N)Cc1ccc(I)cc1 (configuration not stated)
Response: 82

---

Experiment: selectivity is the ratio between IC50 values of 5-HTand DA
Each record is given 1 (yes) if its reported Selectivity is strictly below 40. Records at or above 40 are given 0 (no).

Recorded results for 6 compounds are shown here.
Query: Quick check: Selectivity of Cc1cc2c(cc1CC(C)N)OCO2 (configuration not stated) under 40?
Response: 1 (yes)

Query: Quick check: Selectivity of Cc1c(CC(C)N)ccc2c1OCO2 (configuration not stated) under 40?
Response: 0 (no)

Query: Quick check: Selectivity of Cc1cc(CC(C)N)cc2c1OCO2 (configuration not stated) under 40?
Response: 0 (no)

Query: Quick check: Selectivity of CC(N)Cc1ccc(I)cc1 (configuration not stated) under 40?
Response: 1 (yes)

Query: Quick check: Selectivity of CC(N)Cc1ccc2c(c1)CCC2 (configuration not stated) under 40?
Response: 1 (yes)

Query: Quick check: Selectivity of CSc1ccc(CC(C)N)cc1 (configuration not stated) under 40?
Response: 0 (no)

# input for lookup
Query: Quick check: Selectivity of CC(N)Cc1ccc2c(c1)OCO2 (configuration not stated) under 40?
Response: 1 (yes)
